molecular target: T1, huNav1.7α + β1-β2-β3 (human, UniProt Q15858 1-1988; A5A6L6 19-218; O60939 30-215; Q2KI11 23-215); test: binding FACS, CHO FlpIn cells
T1 construct: Cell line (CHO FlpIn, HEK FlpIn, transient HEK293T) is named under assay; also called huNav1.7-beta1-beta2-beta3; human Nav1.7α with Navβ1, Navβ2 and Navβ3

# binder, EC50 [nM]
data = [
    ("F010301891 (VHH, T57V vs F0103464B09 (Kabat)) VHH: EVQLVESGGGLVQPGGSLRLSCATTSRAFIRDVFTGWYRRVPGKERELVARIYNGGNVNYADFAKGRFSISRDNAKKMVTLRMSNLKPEDTGVYYCLFSGTINTGREYRSGDYWGQGTLVTVSS", 4.7),
    ("F010301889 (VHH, S95A vs F0103464B09 (Kabat)) VHH: EVQLVESGGGLVQPGGSLRLSCATTSRAFIRDVFTGWYRRVPGKERELVARIYNGGNTNYADFAKGRFSISRDNAKKMVTLRMSNLKPEDTGVYYCLFAGTINTGREYRSGDYWGQGTLVTVSS", 5.4),
    ("F010301622 (VHH, Y100fD vs F0103362B08 (Kabat)) VHH: EVQLVESGGGLVQAGGSLRLSCAASVRPFSTSAMGWFRQAPEKEREAVAGILWNGIVTYYADSVKGRFTISRDNAKNEVYLQMNKLKPEDTAVYYCALDRDYGGRSFSADEYEYWGQGTLVTVSS", 170),
    ("F010302350 (VHH) VHH: EVQLVESGGGVVQPGGSLRLSCAASSRQFIRDVFTGWYRRAPGKQRELVARIYNEGNTQYADSVKGRFTISRDNAKKTVYLQMNSLRPEDTALYYCLFSGTISTGREYRSGDYWGQGTLVTVSS", 3.5),
    ("F010302336 (VHH) VHH: EVQLVESGGGVVQPGGSLRLSCAASHRQFIRDVFTGWYRRAPGKQRELVARIYNEGNTQYADSAKGRFTISRDNAKKTVYLQMNSLRPEDTALYYCLFSGTISTGREYRSGDYWGQGTLVTVSS", 3.6),
    ("F010301591 (VHH, G99K vs F0103362B08 (Kabat)) VHH: EVQLVESGGGLVQAGGSLRLSCAASVRPFSTSAMGWFRQAPEKEREAVAGILWNGIVTYYADSVKGRFTISRDNAKNEVYLQMNKLKPEDTAVYYCALDRDYKGRSFSAYEYEYWGQGTLVTVSS", 93),
    ("F010301567 (VHH, F29Y vs F0103362B08 (Kabat)) VHH: EVQLVESGGGLVQAGGSLRLSCAASVRPYSTSAMGWFRQAPEKEREAVAGILWNGIVTYYADSVKGRFTISRDNAKNEVYLQMNKLKPEDTAVYYCALDRDYGGRSFSAYEYEYWGQGTLVTVSS", 110),
    ("F010302362 (VHH) VHH: EVQLVESGGGVVQPGGSLRLSCAASHRAFIRDVFTGWYRQAPGKQRELVARIYESGNTQYADSVKGRFTISRDNAKKTVYLQMNSLRPEDTALYYCLFSGTISTGREYRSGDYWGQGTLVTVSS", 5.4),
]
